# target or system: 5-hydroxytryptamine receptor 1A (Homo sapiens, UniProt P08908)
# Sequence (P08908 whole entry): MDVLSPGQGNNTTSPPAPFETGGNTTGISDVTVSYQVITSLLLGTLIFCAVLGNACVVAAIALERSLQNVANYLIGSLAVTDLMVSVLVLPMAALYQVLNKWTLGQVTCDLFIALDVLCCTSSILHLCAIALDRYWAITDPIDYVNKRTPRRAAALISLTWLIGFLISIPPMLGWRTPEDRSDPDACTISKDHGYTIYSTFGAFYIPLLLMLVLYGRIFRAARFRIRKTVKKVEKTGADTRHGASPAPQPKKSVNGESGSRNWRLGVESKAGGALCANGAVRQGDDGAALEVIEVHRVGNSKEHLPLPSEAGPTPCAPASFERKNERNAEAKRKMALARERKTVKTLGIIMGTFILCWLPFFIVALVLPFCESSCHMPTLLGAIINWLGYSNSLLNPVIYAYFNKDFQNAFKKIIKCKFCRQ
Here, compounds appear alongside Ki reported for 5-hydroxytryptamine receptor 1A (Homo sapiens, UniProt P08908) in the literature.
Respond numerically; units are nM and should not be typed.

Here is how some compounds turned out for Ki.
Cl.Cl.Cl.O=c1c2ccc(Cl)cc2oc2c(CN3CCN(CCO)CC3)cccc12 | 4500
COc1ccccc1N1CCN(Cc2ccn(-c3ccccc3C)c2)CC1 | 41
COc1ccccc1N1CCN(CCCCN2C(=O)C[C@H](NC(=O)CC3CC4CCC3C4)C2=O)CC1 (stereo not given in full) | 18
O=C1c2ccccc2S(=O)(=O)N1CCCCCCN1CCN(c2ccccc2F)CC1 | 12
CC(C)c1ccccc1OCCN1CCC(NS(=O)(=O)c2cnn(C)c2)CC1 | 616

Enquiry: Would you kindly share the measured Ki for `COc1ccccc1N1CCN(CCNc2c(C(C)=O)c(C)nn(C)c2=O)CC1` ?
Return: 13

Enquiry: Next compound: `O=C1c2cccc3cccc(c23)N1CCCCCCN1CCN(c2ccccc2C(F)(F)F)CC1`
Return: 599

Enquiry: Now try `O=C([C@@H]1CCCN1C(=O)CCCCCCN1CCN(c2ccccc2-c2ccccc2)CC1)N1CCOCC1` .
Return: 35

Enquiry: Another: `Cn1c(=O)c2c(nc3n2CCCCN3CCCN2CCN(c3cccc(Cl)c3)CC2)n(C)c1=O`
Return: 26.7

Enquiry: What about CC(C)c1ccccc1OCCN1CCC(NC(=O)c2ccc3ccccc3n2)C1 (stereo not given) ?
Return: 30

====

Published log10 of Ki for 5-hydroxytryptamine receptor 1A (Homo sapiens, UniProt P08908), assembled from different documents, is shown next.
Short version: log10 scale, Ki, µM.

Use the examples below as a reference point.
Fc1ccc(Oc2ccccc2C2CCNCC2)cc1 | -0.93
O=S(=O)(NC1CCN(CC(O)COc2ccccc2-c2ccccc2)CC1)c1cccc(Cl)c1 (stereo unspecified) | 0.12
COc1cccc(N2CCN(CCCCOc3cc(C)cc4oc(=O)cc(C)c34)CC2)c1 | -3.00
CN1CCC(c2c[nH]c3ccc(NC(=O)c4cccs4)nc23)CC1 | -0.46
COc1cc2c(cc1OC)[C@@H]1Cc3c(CO)c(OC)cc(OC)c3CN1CC2 | -0.14

Enquiry: # input compound: CC(C)(C)OC(=O)N1CCCC1CNC1CCC(c2cc(F)ccc2F)(S(=O)(=O)c2ccc(Cl)cc2)CC1 (stereo unspecified) ; wanted: its log10 of Ki
Return: 0.44

Enquiry: Then what about the compound CC(C)(CCCN1CCCC(c2ccccc2)C1)S(=O)(=O)c1ccccc1 (racemic) ?
Return: -0.40

Enquiry: Can you handle `O=C(CCN1CCN(c2ccccc2Cl)CC1)c1ccsc1` next?
Return: -0.70

Enquiry: What about O=C1NCc2ccc3c(c21)CC(N(CCCCc1c[nH]c2ccc(F)cc12)CC1CC1)CO3 (racemic) ?
Return: -1.72

Enquiry: Same lookup for `O=C(CCN1CCN(c2ccc(Cl)cc2)CC1)N1CCN(c2cccc(Cl)c2)CC1` , please.
Return: -0.52
